Test system: A549
Experiment: NCI tumour cell line growth inhibition, 48 h
Active and inactive are the calls of the source. Rule as the data show it: active = GI50 up to about 1.1 µM and inactive = higher.
MEASURED ATTRIBUTE: GI50

Use the examples below as a reference point.
COMPOUND	GI50
Cn1c(=O)n2n(c1=O)C(S(=O)(=O)c1ccccc1)C2 (configuration not stated)	> 100 µM (inactive)
O=C(Oc1ccccc1)c1cc2cc(CCl)ccc2oc1=O	25.8 µM (inactive)
CCOC(=O)c1csc(NC(=O)CCN(CC)CC)n1	55 µM (inactive)
CO[C@@](c1ccccc1)(c1nc(C#N)c(N)o1)C(F)(F)F	> 100 µM (inactive)
CC1(C)C(O)OC(O)C1(C)C (configuration not stated)	> 100 µM (inactive)

Shift focus to the following entry.
// recorded GI50 for CCOC(=O)C(C(=O)OCC)C(=O)c1ccccc1C(=O)c1ccccc1 : > 100 µM (inactive)
